Source listed as paper PMC10539501.

Assay: Retention in hydrophobic C18 column by HPLC
Conditions: Supplementary Fig 3d, logD7.4 vs tR
Starred links: 1 amine or outer side, 2 acyl side, 3 side chain; linkers in the order of their positions; H or OH if unused. Non-standard residues stand in square brackets, D forms with d. Residues, ends and D or L forms follow the SMILES beside them. X16 = CC(C)C[C@H](N[*:1])C(=S)N[C@H](C)C(=O)[*:2]
reportedEndpoint: tR (min)

(P) CC(C)C[C@@H]1NC(=O)[C@H](Cc2ccc(O)cc2)NC(=O)[C@H]2CCCN2C(=O)[C@H](CC(C)C)NC(=O)[C@H](CC(C)C)NC(=O)[C@@H](CC(C)C)NC1=O [compound 10, cyclo(-D-Leu^1-Leu-Leu-D-Pro-Tyr-Leu^6-)] (cyclo(LL[dP]YL[dL]))
(Q) CC(C)C[C@@H]1NC(=O)[C@@H]2CCCN2C(=O)[C@@H](C)NC(=S)[C@H](CC(C)C)NC(=O)[C@@H](CC(C)C)NC(=O)[C@H]2CCCN2C(=O)[C@H](CC(C)C)NC(=O)[C@@H](CC(C)C)NC1=O [12e] (cyclo([dL]L[dP][dL][X16]PL))
## Input Lower tR: P or Q ? Identify your pick by its label.
## Output P
(P: 9.3 min, Q: 15 min)
